Test target: MMP-13CD (catalytic domain of collagenase 3) (Homo sapiens)
Experimental protocol: Thiopeptolide hydrolysis assay, MMP-13;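 further: inhibition of enzymatic thiopeptolide substrate cleavage (100 µM) in pH 6.0 MES buffer with CaCl2 and DTNB, comparing hydrolysis with versus without inhibitor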
Test settings: MMP13 IC50 μM, Table IVb
Entries and their measured IC50 follow.
# value in µM; strip the unit string

Worked examples follow.
INSERT INTO assay_data (smiles_notation, measurement_kind, quantitative_readout) VALUES
  ('C=CCn1c(=O)c2cc(C(=O)NCc3ccc(OC)cc3)ccc2n(C)c1=O', 'IC50', 1.01),
  ('Cn1c(=O)n(Cc2ccc(F)c(F)c2)c(=O)c2cc(C(=O)NCc3cccnc3)ccc21', 'IC50', 0.067),
  ('COc1ccc(CNC(=O)c2ccc3c(c2)c(=O)n(Cc2ccc(-c4nnn(C)n4)cc2)c(=O)n3C)cc1', 'IC50', 0.004),
  ('COc1ccc(CNC(=O)c2ccc3c(c2)c(=O)n(CCO)c(=O)n3C)cc1', 'IC50', 6.35),
  ('COc1ccc(CNC(=O)c2ccc3c(c2)c(=O)n(CC=CC(=O)O)c(=O)n3C)cc1', 'IC50', 1.4),
  ('Cn1c(=O)n(Cc2ccc(C(=O)O)cc2)c(=O)c2cc(C(=O)NCc3ccc(F)cc3)ccc21', 'IC50', 0.0018),
  ('Cn1c(=O)n(Cc2ccc(F)cc2)c(=O)c2cc(C(=O)NCc3cccnc3)ccc21', 'IC50', 0.12),
  ('COc1ccc(CNC(=O)c2ccc3c(c2)c(=O)n(CC=C(C)C)c(=O)n3C)cc1', 'IC50', 0.2);

IC50 for COC(=O)Cc1ccc(Cn2c(=O)c3cc(C(=O)NCc4ccc(OC)cc4)ccc3n(C)c2=O)cc1 ?
0.0034

Try this molecule next: COC(=O)c1ccc(Cn2c(=O)c3cc(C(=O)NCc4ccncc4)ccc3n(C)c2=O)cc1
0.023

Cool, now COc1ccc(CNC(=O)c2ccc3c(c2)c(=O)n(Cc2ccc(C(=O)O)s2)c(=O)n3C)cc1
0.0084

Try COc1ccc(CNC(=O)c2ccc3c(c2)c(=O)n(Cc2ccc(C(=O)OCCN(C)C)cc2)c(=O)n3C)cc1 next.
0.037

Let us now turn to COc1ccc(CNC(=O)c2ccc3c(c2)c(=O)n(Cc2ccc(N)nc2)c(=O)n3C)cc1
0.053

Can you handle COc1cccc(CNC(=O)c2ccc3c(c2)c(=O)n(Cc2ccc(F)cc2)c(=O)n3C)c1 next?
0.0046

Also check O=C(NCc1ccc2c(c1)OCO2)c1ccc2[nH]c(=S)n(Cc3ccccc3)c(=O)c2c1
0.014

And then COc1ccc(CNC(=O)c2ccc3c(c2)c(=O)n(Cc2ccccn2)c(=O)n3C)cc1 , what is it?
0.43

And for COc1ccc(CNC(=O)c2ccc3c(c2)c(=O)n(Cc2ccc(-c4nnnn4C)cc2)c(=O)n3C)cc1 ?
0.0023

Now try COc1ccc(CNC(=O)c2ccc3c(c2)c(=O)n(Cc2ccc(F)c(F)c2)c(=O)n3C)cc1 .
0.0098

And for Cn1c(=O)n(Cc2ccccc2)c(=O)c2cc(C(=O)NCc3ccc(OCC(=O)O)cc3)ccc21 ?
2.9

Same lookup for COc1ccc(CNC(=O)c2ccc3c(c2)c(=O)n(Cc2ccc(-c4ccccc4C#N)cc2)c(=O)n3C)cc1 , please.
0.025

Another molecule to look at: C#CCn1c(=O)c2cc(C(=O)NCc3ccc(OC)cc3)ccc2n(C)c1=O
0.68
